Listed here are molecules together with their documented IC50.
System: H1975 (EGFR L858R/T790M double mutation)
methodSummary: Cell antiproliferative assay (CTG, 72 h), H1975
Type: cell-based, human
assayConditions: Homo sapiens, NCI-H1975, 72 h, Table 2, H1975 cells

Take a look at these entries with their results.
molecule: COc1cc(N2CCN(C(=O)CN3CCC(c4ccc5c(cnn5C5CCC(=O)NC5=O)c4)CC3)CC2)ccc1Nc1ncc(Cl)c(Nc2ccccc2)n1 (stereo not drawn) [Compound T-326]
endpointValue: 100 to 1000 nM
//
molecule: O=C1CCC(Nc2ccc(C3CCN(CC(=O)N4CCN(c5ccc(Nc6ncc(Cl)c(Nc7ccccc7)n6)c(Cl)c5)CC4)CC3)cc2)C(=O)N1 (stereo not drawn) [Compound T-328]
endpointValue: 100 to 1000 nM
//
molecule: CNC(=O)c1ccccc1Nc1nc(Nc2cc(C(F)(F)F)c(N3CCN(C(=O)CN4CCC(c5ccc(NC6CCC(=O)NC6=O)cc5)CC4)CC3)cc2OC)ncc1Br (stereo not drawn) [Compound T-292]
endpointValue: ≤ 10 nM

What value of measured IC50 is listed for COc1nc(N2CCN(C(=O)CN3CCC(c4ccc(NC5CCC(=O)NC5=O)cc4)CC3)CC2)ccc1Nc1ncc(Cl)c(Nc2ccccc2P(C)(C)=O)n1 (stereo not drawn) [Compound T-203] ? 10 to 100 nM

Moving on to the next molecule: COc1cc(N2CCN(C(=O)CN3CCC(c4ccc(NC5CCC(=O)NC5=O)cc4)CC3)CC2)ccc1Nc1ncc(Cl)c(Nc2cccc(C#N)c2)n1 (stereo not drawn) [Compound T-134] 10 to 100 nM

Moving on to the next molecule: COc1cc(N2CCN(C(=O)CN3CCC(c4ccc(NC5CCC(=O)NC5=O)cc4)CC3)CC2)c(C)cc1Nc1ncc(C(F)(F)F)c(Nc2ccccc2C(C)=O)n1 (stereo not drawn) [Compound T-58] 10 to 100 nM

Moving on to the next molecule: COc1cc(N2CCN(C(=O)CN3CCC(c4ccc(NC5CCC(=O)NC5=O)cc4)CC3)CC2C)ccc1Nc1ncc(Cl)c(Nc2ccccc2C(C)=O)n1 (stereo not drawn) [Compound T-60] 10 to 100 nM

Moving on to the next molecule: CCc1cc(Nc2ncc(Br)c(Nc3ccccc3C(=O)NC)n2)c(OC)cc1N1CCN(C(=O)CN2CCC(c3ccc(NC4CCC(=O)NC4=O)cc3)CC2)CC1 (stereo not drawn) [Compound T-362] 10 to 100 nM

====

Tested on: H1975 (EGFR L858R/T790M double mutation)
methodSummary: Cell antiproliferative assay (CTG, 72 h), H1975
Assay type: cell-based, human
assayConditions: Homo sapiens, NCI-H1975, 72 h, Table 2, H1975 cells
Listed here are compounds together with their documented IC50.

Take a look at these entries with their results.
compound: COc1cc(N2CCN(CC(=O)NCCNc3cccc4c3C(=O)N(C3CCC(=O)NC3=O)C4=O)CC2)ccc1Nc1ncc(Cl)c(Nc2ccccc2C(C)=O)n1 (centres unmarked)
measuredOn: H1975 (EGFR L858R/T790M double mutation)
IC50: 100 to 1000 nM
--
compound: C=CC(=O)Nc1cc(Nc2ncc(Cl)c(Nc3ccccc3)n2)c(OC)cc1N1CCN(C(=O)CN2CCC(c3ccc(NC4CCC(=O)NC4=O)cc3)CC2)CC1 (centres unmarked)
measuredOn: H1975 (EGFR L858R/T790M double mutation)
IC50: 100 to 1000 nM

What value of measured IC50 is listed for CNC(=O)c1ccccc1Nc1nc(Nc2cc(C)c(N3CCN(C(=O)CN4CCC(c5ccc(NC6CCC(=O)NC6=O)cc5F)CC4)CC3)cc2OC)ncc1Br (centres unmarked) ? 10 to 100 nM

Moving on to the next compound: CNC(=O)c1ccccc1Nc1nc(Nc2cc(C)c(N3CCN(C(=O)CN4CCC(c5ccc(NC6CCC(=O)NC6=O)cc5)CC4)CC3)cc2OC)ncc1Br (centres unmarked) ≤ 10 nM

Moving on to the next compound: COc1cc(N2CCN(C(=O)CN3CCC(c4ccc(NC5CCC(=O)NC5=O)cc4)CC3)CC2)ccc1Nc1ncc(Cl)c(Nc2ccccc2C(C)=O)n1 (centres unmarked) 10 to 100 nM

Moving on to the next compound: COc1cc(N2CCN(C(=O)CN3CCC(c4ccc(NC5CCC(=O)NC5=O)cc4)CC3)C(C)C2)ccc1Nc1ncc(Cl)c(Nc2ccccc2)n1 (centres unmarked) 100 to 1000 nM

Moving on to the next compound: COc1cc(N2CC3CN(C(=O)CN4CCC(c5ccc(NC6CCC(=O)NC6=O)cc5)CC4)CC3C2)ccc1Nc1ncc(Cl)c(Nc2ccccc2C(C)=O)n1 (centres unmarked) 10 to 100 nM

Moving on to the next compound: COc1cc(N2CCC[C@H](N(C)CN3CCC(c4ccc(NC5CCC(=O)NC5=O)cc4)CC3)C2)ccc1Nc1ncc(Cl)c(Nc2ccccc2C(C)=O)n1 (some centres unmarked) 100 to 1000 nM

Moving on to the next compound: CNC(=O)c1ccccc1Nc1nc(Nc2cc(C)c(N3CCN(C(=O)CN4CCC(c5ccc(NC6CCC(=O)NC6=O)cc5)CC4)C(C)C3)cc2OC)ncc1Br (centres unmarked) 10 to 100 nM

Moving on to the next compound: COc1cc(N2CCN(C(=O)CN3CCC(c4cccc(NC5CCC(=O)NC5=O)c4)CC3)CC2)ccc1Nc1ncc(Cl)c(Nc2ccccc2C(C)=O)n1 (centres unmarked) 100 to 1000 nM

Moving on to the next compound: COc1cc(N2CCN(C(=O)CN3CCC(c4ccc(NC5CCC(=O)NC5=O)cc4)CC3)CC2)ccc1Nc1ncc(Br)c(Nc2cccc3c2C(=O)NC3)n1 (centres unmarked) ≤ 10 nM

Moving on to the next compound: COc1cc(N2CCC(N3CCN(C(=O)CN4CCC(c5ccc(NC6CCC(=O)NC6=O)cc5)CC4)CC3)CC2)ccc1Nc1ncc(Cl)c(Nc2ccccc2C(C)=O)n1 (centres unmarked) 100 to 1000 nM
